molecular target: biotinylated human DLL3 protein expressed as a human IgG1 fusion protein (human) (UniProt Q9NYJ7); experiment: Octet, biotinylated human DLL3-IgG1 fusion on streptavidin tips, single 50 nM, conditioned medium (relative KD)
Sequence (Q9NYJ7 27-492): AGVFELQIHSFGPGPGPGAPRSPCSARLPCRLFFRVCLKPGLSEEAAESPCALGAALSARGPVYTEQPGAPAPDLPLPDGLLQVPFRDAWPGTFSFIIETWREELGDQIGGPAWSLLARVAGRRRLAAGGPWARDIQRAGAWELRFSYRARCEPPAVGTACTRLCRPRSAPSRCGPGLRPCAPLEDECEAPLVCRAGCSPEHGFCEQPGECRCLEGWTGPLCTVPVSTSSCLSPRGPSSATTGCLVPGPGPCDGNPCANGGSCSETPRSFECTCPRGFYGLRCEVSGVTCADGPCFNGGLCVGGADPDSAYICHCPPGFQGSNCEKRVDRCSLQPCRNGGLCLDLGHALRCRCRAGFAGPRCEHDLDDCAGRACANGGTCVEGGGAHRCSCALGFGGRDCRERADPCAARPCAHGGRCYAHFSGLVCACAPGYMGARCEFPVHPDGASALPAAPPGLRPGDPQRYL
This listing pairs binders with measured pKd.
# reply with the number alone; pKd is -log10 of concentration in mol/L

INSERT INTO assay_data (binder, value_measured) VALUES
  ('anti-DLL3 trispecific protein, DLL3 binder 3D05 (protein, part only; not given: CD3 binder and albumin binder, part only) chain, part: EVQLVESGGGLVQPGGSLTLSCAASGSSVRFLSMAWYRQAPGKKRELVAGISADGSTDYIDSVKGRFTISRDNAKNSVYLQMNSLRAEDTAVYYCYAYRWTRRYTYWGQGTLVTVSSGGGGSGGGSGGGGSGGGSHHHHHH', 7.80),
  ('anti-DLL3 trispecific protein, DLL3 binder 1F04 (protein, part only; not given: anti-CD3 and anti-albumin domains, part only) chain, part: EVQLVESGGGLVQPGGSLTLSCVASGGTSSINAMGWYRRAPGKQRELVAGISSDGSKVYSDSVKGRFTISRDNAKNSVYLQMNSLRAEDTAVYYCYYFRTVSGSSARYWGQGTLVTVSSGGGGSGGGSGGGGSGGGSHHHHHH', 8.00),
  ('anti-DLL3 trispecific protein, DLL3 binder 3A05 (protein, part only; not given: anti-CD3 fragment and anti-albumin domain, part only) chain, part: EVQLVESGGGLVQPGGSLTLSCAASGSSVSFLSMAWYRQAPGKKRELVAGISEAGSTDYIDSVKGRFTISRDNAKNSVYLQMNSLRAEDTAVYYCYAYRWRTRYTYWGQGTLVTVSSGGGGSGGGSGGGGSGGGSHHHHHH', 7.82);

API: the following record is the query input.
Briefly, pKd measured for anti-DLL3 trispecific protein, DLL3 binder 3G08 (protein, part only; not given: anti-CD3 fragment and anti-albumin sdAb, part only) chain, part: EVQLVESGGGLVQPGGSLTLSCAASGSRVSFLSMAWYRQAPGKKRELVAGISKDGSTDYIDSVKGRFTISRDNAKNSVYLQMNSLRAEDTAVYYCYAYRWTTRVTYWGQGTLVTVSSGGGGSGGGSGGGGSGGGSHHHHHH : 7.92
